Consider the following molecules; for each one, report its growth.
Tested on: SN12C renal
Experiment: NCI-60 one-dose screen, 48 h (100 = growth as untreated, 0 = no growth, -100 = all killed)
Conditions: 10 µM unless noted
Experimental: Growth inhibition of the SN12C human tumor cell line is measured as a screen for anti-cancer activity. Cells are grown in 96 well plates and exposed to the test compound for 48 hours. Compounds are tested at a single concentration, which is 10^-5 M for most compounds. The reported endpoint is percent growth (GI% or GIPRCNT), where numbers from 0 - 100% represent growth inhibition, and numbers from -100% - 0 represent cell death. For example, a value of 40 represents 60% growth inhibition. […]
About 83,000 compounds went through this panel and 20% of them were active in at least one assay; those are over-represented in the sample as a whole.
Give the quantity in %, number only.

Ask: // returns reported growth for input O=[N+]([O-])c1ccc(N/N=C(/C(=N/Nc2ccc([N+](=O)[O-])cc2)c2ccccc2)c2ccccc2)cc1
Reply: 81.4

Ask: And the next one, CCCc1cc(NC)nc(S(=O)(=O)CC)n1 ?
Reply: 99.1

Ask: And the next one, CC(C)CCC[C@@H](C)[C@H]1CC[C@H]2[C@@H]3CC=C4C[C@@H](C(C(=O)O)C(=O)O)CC[C@]4(C)[C@H]3CC[C@]12C ?
Reply: -12.2

The reported measurements were obtained from PubChem BioAssay (NCI).
